Reported values of reduction of HOTAIR RNA levels for individual entries
- Test system: HOTAIR
- assay: siRNA-mediated knockdown of HOTAIR in HRECs, RT-qPCR
- Format: cell-based, human
- recordedConditions: HG-cultured HRECs, 48 hours, compared to SCR HG controls

substance | reduction of HOTAIR RNA levels
siHOTAIR SB4: custom 21-nt duplex siRNA; sense GUGUAUAUAUAAUAAUGUAUU, antisense UACAUUAUUAUAUAUACACAA; HOTAIR target position 2160-2182 (RNA, backbone not given here) [custom 21-nt duplex siRNA; HOTAIR target position 2160-2182] | ~32%
siHOTAIR SB1: custom 21-nt duplex siRNA; sense CCAAAGAGUCUGAUGUUUACA, antisense UAAACAUCAGACUCUUUGGGG; HOTAIR target position 457-479 (RNA, backbone not given here) [custom 21-nt duplex siRNA; HOTAIR target position 457-479] | ~67%
siHOTAIR SB3: custom 21-nt duplex siRNA; sense CUCUAUAAUAUGCUUAUAUUA, antisense AUAUAAGCAUAUUAUAGAGUU; HOTAIR target position 1700-1722 (RNA, backbone not given here) [custom 21-nt duplex siRNA; HOTAIR target position 1700-1722] | ~57%
siHOTAIR SB2: custom 21-nt duplex siRNA; sense CAUAAACAAUAUAUCUGUUGG, antisense AACAGAUAUAUUGUUUAUGAG; HOTAIR target position 1156-1178 (RNA, backbone not given here) [custom 21-nt duplex siRNA; HOTAIR target position 1156-1178] | ~41%
